# targetDesc: UDP-glucuronosyltransferase 1A9 (Homo sapiens)
# Sequence (O60656 whole entry): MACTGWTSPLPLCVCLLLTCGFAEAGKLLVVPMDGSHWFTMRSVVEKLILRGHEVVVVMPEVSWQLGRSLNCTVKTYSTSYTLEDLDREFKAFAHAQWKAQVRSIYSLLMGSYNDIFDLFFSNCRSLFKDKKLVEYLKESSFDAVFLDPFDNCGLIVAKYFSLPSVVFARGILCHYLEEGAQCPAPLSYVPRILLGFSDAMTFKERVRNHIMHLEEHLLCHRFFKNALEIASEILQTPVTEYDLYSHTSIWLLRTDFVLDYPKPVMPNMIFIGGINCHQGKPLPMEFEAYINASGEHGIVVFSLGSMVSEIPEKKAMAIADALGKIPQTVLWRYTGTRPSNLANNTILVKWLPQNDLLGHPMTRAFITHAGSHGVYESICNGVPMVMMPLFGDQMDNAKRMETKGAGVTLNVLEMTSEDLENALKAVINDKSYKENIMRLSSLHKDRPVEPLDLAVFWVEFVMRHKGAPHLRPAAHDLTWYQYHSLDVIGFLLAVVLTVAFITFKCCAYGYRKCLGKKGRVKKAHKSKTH
# assaySummary: Activity of human recombinant UGT1A9 expressed in baculovirus-infected insect cells assessed as unbound intrinsic clearance for enzyme-mediated glucuronidation per mg of protein after 5 mins by Michaelis-Menten plot analysis in presence of UDPGA and 0.1% fatty acid free BSA
# Assay type: ADME
recordedEndpoint: CL free (µL/min/mg)
Give the value in µL/min/mg but do not write µL/min/mg after it.

Looking for the measured CL free of `COc1ccc(C(=O)Nc2cccc(O)c2NC(=O)c2ccc(N3CCCN(C)CC3)cc2)cc1.O=C(O)CCC(=O)O` , can you help?
250

---

# targetDesc: UDP-glucuronosyltransferase 1A6 (Homo sapiens, UniProt P19224)
# Sequence (P19224 whole entry): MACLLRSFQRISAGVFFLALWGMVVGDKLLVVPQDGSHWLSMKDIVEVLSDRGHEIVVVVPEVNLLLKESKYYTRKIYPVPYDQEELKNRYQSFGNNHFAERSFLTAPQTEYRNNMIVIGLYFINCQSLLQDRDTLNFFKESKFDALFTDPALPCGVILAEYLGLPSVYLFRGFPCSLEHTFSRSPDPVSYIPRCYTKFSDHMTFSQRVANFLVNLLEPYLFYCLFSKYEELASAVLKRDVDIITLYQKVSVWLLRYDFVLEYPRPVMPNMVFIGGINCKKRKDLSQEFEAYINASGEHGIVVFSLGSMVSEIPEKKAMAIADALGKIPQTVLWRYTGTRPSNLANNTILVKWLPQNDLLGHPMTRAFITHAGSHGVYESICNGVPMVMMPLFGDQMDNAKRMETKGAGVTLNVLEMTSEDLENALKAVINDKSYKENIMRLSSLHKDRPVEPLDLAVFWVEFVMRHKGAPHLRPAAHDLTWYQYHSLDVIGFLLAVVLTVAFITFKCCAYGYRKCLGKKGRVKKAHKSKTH
# assaySummary: Activity of human recombinant UGT1A6 expressed in baculovirus-infected insect cells assessed as enzyme-mediated glucuronidation per mg of protein after 10 mins in presence of UDPGA
# Format: ADME
recordedEndpoint: Drug metabolism

Looking for the measured Drug metabolism of `COc1ccc(C(=O)Nc2cccc(O)c2NC(=O)c2ccc(N3CCCN(C)CC3)cc2)cc1.O=C(O)CCC(=O)O` , can you help?
< 0.01 nmol/min/mg

---

# targetDesc: UDP-glucuronosyltransferase 2B15 (Homo sapiens, UniProt P54855)
# Sequence (P54855 whole entry): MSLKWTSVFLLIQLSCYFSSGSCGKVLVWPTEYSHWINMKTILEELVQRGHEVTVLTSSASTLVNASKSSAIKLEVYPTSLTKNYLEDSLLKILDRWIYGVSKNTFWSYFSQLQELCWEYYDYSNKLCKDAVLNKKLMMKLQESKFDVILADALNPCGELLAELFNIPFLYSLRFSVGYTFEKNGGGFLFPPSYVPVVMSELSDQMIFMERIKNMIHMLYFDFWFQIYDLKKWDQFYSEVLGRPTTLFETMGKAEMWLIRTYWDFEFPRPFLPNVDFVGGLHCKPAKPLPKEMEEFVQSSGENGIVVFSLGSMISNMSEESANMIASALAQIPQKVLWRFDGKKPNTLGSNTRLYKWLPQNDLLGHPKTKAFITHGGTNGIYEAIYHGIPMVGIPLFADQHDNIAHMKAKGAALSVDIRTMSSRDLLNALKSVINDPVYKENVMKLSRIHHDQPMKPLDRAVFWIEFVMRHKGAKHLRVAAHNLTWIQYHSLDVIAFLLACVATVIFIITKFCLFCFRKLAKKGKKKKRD
# assaySummary: Activity of human recombinant UGT2B15 expressed in baculovirus-infected insect cells assessed as enzyme-mediated glucuronidation per mg of protein after 10 mins in presence of UDPGA
# Format: ADME
recordedEndpoint: Drug metabolism

Looking for the measured Drug metabolism of `COc1ccc(C(=O)Nc2cccc(O)c2NC(=O)c2ccc(N3CCCN(C)CC3)cc2)cc1.O=C(O)CCC(=O)O` , can you help?
< 0.01 nmol/min/mg

---

# targetDesc: UDP-glucuronosyltransferase 1A7 (Homo sapiens, UniProt Q9HAW7)
# Sequence (Q9HAW7 whole entry): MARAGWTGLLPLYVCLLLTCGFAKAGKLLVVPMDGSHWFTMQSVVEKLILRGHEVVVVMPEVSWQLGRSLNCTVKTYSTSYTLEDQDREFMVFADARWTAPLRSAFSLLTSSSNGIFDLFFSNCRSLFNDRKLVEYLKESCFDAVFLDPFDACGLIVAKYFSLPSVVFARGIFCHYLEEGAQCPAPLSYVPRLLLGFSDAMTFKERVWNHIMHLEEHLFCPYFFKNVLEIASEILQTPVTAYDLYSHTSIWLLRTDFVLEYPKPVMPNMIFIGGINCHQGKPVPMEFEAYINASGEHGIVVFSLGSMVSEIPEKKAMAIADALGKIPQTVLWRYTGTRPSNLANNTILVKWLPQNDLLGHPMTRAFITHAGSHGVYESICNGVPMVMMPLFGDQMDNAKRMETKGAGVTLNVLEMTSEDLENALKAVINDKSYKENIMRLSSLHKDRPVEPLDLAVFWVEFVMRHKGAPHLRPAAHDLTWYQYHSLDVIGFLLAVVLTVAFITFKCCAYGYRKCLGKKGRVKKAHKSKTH
# assaySummary: Activity of human recombinant UGT1A7 expressed in baculovirus-infected insect cells assessed as intrinsic clearance for enzyme-mediated glucuronide formation per mg of protein at 1 to 250 uM after 10 mins by Michaelis-Menten plot analysis in presence of UDPGA
# Format: ADME
recordedEndpoint: clearance (µL/min/mg)
Give the value in µL/min/mg but do not write µL/min/mg after it.

Looking for the measured clearance of `COc1ccc(C(=O)Nc2cccc(O)c2NC(=O)c2ccc(N3CCCN(C)CC3)cc2)cc1.O=C(O)CCC(=O)O` , can you help?
12.3
